Source: patent US9445594B2

Test system: Corn Earworm (Helicoverpa zea, HELIZE) ("CEW")
PROTOCOL_TEXT: Bioassays on CEW, 128-well diet tray assay
Assay type: in vivo
CONDITIONS_USED: 168 h, second instar larvae, 50 μg/cm^2 on artificial diet, 25° C., five to seven days, average of eight wells, read-out: CEW % Control (or Mortality) rating
READOUT_KIND: mortality at 50 µg/cm2 (%)
# value in %; strip the unit string

For orientation, consider the following solved cases.
N#Cc1ccc(NC(=S)Nc2ccc(-c3ncn(-c4ccc(OC(F)(F)F)cc4)n3)cc2)cc1 | 0
CCOc1ccc(NC(=O)Nc2ccc(-c3ncn(-c4ccc(OC(F)(F)F)cc4)n3)cc2)cn1 | 0

With those in mind, consider the next molecule.
mortality at 50 µg/cm2 recorded for this molecule, CCOC(=O)c1ccc(NC(=O)Nc2ccc(-c3ncn(-c4ccc(OC(F)(F)F)cc4)n3)cc2)c(C)n1 , is 0

====

Tested on: Cabbage Looper (Trichoplusia ni, TRIPNI) ("CL")
PROTOCOL_TEXT: Bioassays on CL, 128-well diet tray assay
Type: in vivo
CONDITIONS_USED: 168 h, second instar larvae, 50 μg/cm^2 on artificial diet, 25° C., five to seven days, average of eight wells, read-out: CL % Control (or Mortality) rating
This section presents molecules with their documented mortality at 50 µg/cm2 values.

For orientation, consider the following solved cases.
CCc1ccccc1-c1ccccc1NC(=O)Nc1ccc(-c2ncn(-c3ccc(OC(F)(F)F)cc3)n2)cc1 | 50 to 100%
CC(C)c1ccccc1NC(=O)NCCCCc1ccc(-c2ncn(-c3ccc(OC(F)(F)F)cc3)n2)cc1 | 0%
Cc1ccc(NC(=O)NCCCc2ccc(-c3ncn(-c4ccc(OC(F)(F)F)cc4)n3)cc2)cc1 | 0%
O=C(NCc1ccc(-c2ncn(-c3ccc(OC(F)(F)C(F)(F)F)cc3)n2)cc1)Nc1ccccc1-c1ccccc1 | 50 to 100%
COc1cccc(NC(=O)NCCCc2ccc(-c3ncn(-c4ccc(OC(F)(F)F)cc4)n3)cc2)c1 | 50 to 100%
FC(F)(F)Oc1ccc(-n2cnc(-c3ccc(NC(=S)Nc4ccccc4-c4nnco4)cc3)n2)cc1 | 0%
Cc1cccc(NC(=O)NCCCc2ccc(-c3ncn(-c4ccc(OC(F)(F)F)cc4)n3)cc2)c1 | 0%
CSc1ccccc1-c1ccccc1NC(=O)Nc1ccc(-c2ncn(-c3ccc(OC(F)(F)F)cc3)n2)cc1 | 50 to 100%
O=C(NCCCc1ccc(-c2ncn(-c3ccc(OC(F)(F)F)cc3)n2)cc1)Nc1ccccc1Cl | 50 to 100%
FC(F)(F)Oc1ccc(-n2cnc(-c3ccc(NC(=S)Nc4ccccc4-c4noc(C5CC5)n4)cc3)n2)cc1 | 50 to 100%

mortality at 50 µg/cm2 recorded for this molecule, O=C(Nc1ccc(-c2ncn(-c3ccc(OC(F)(F)C(F)(F)F)cc3)n2)cc1)Nc1ccccc1C1CC1 , is 50 to 100%

mortality at 50 µg/cm2 recorded for this molecule, COc1ccc(NC(=O)NCCCc2ccc(-c3ncn(-c4ccc(OC(F)(F)F)cc4)n3)cc2)cc1 , is 0%

mortality at 50 µg/cm2 recorded for this molecule, O=C(Nc1ccc(-c2ncn(-c3ccc(OC(F)(F)F)cc3)n2)cc1)Nc1ccccc1-c1ccccc1 , is 50 to 100%

mortality at 50 µg/cm2 recorded for this molecule, O=C(NCCCc1ccc(-c2ncn(-c3ccc(OC(F)(F)F)cc3)n2)cc1)Nc1cccc(Cl)c1 , is 50 to 100%

mortality at 50 µg/cm2 recorded for this molecule, O=C(NCCCc1ccc(-c2ncn(-c3ccc(OC(F)(F)F)cc3)n2)cc1)Nc1ccc(Cl)cc1 , is 50 to 100%

mortality at 50 µg/cm2 recorded for this molecule, CC(C)c1ccccc1NC(=O)Nc1ccc(-c2ncn(-c3ccc(OC(F)(F)C(F)(F)F)cc3)n2)cc1 , is 50 to 100%
